- TARGET UNDER TEST: CTLA-4 (Mus musculus, UniProt P09793)
- ASSAY NOTES: CDS well image, 293T cells transfected with the mouse gene, stained with the mouse fusion protein
PROPERTY LABEL: binding result

# BINDER, PROPERTY LABEL, OBSERVED RESULT
rows = [
    ("PD-1Ig (Fc fusion, Mus musculus, UniProt Q02242 25-167, looked up, Ig fusion protein purchased from R&D systems; also called mouse PD-1Ig fusion protein) fusion protein: LEVPNGPWRSLTFYPAWLTVSEGANATFTCSLSNWSEDLMLNWNRLSPSNQTEKQAAFCNGLSQPVQDARFQIIQLPNRHDFHMNILDTRRNDSGIYLCGAISLHPKAKIEESPGAELVVTERILETSTRYPSPSPKPEGRFQ", "binding result", "no binding"),
    ("B7-2Ig (Fc fusion, also called mouse B7-2Ig fusion protein; not shown: Ig (Fc) part and any linker of the R&D Systems fusion protein) VSVETQAYFNGTAYLPCPFTKAQNISLSELVVFWQDQQKLVLYEHYLGTEKLDSVNAKYLGRTSFDRNNWTLRLHNVQIKDMGSYDCFIQKKPPTGSIILQQTLTELSVIANFSEPEIKLAQNVTGNSGINLTCTSKQGHPKPKKMYFLITNSTNEYGDNMQISQDNVTELFSISNSLSLSFPDGVWHMTVVCVLETESMKISSKPLNFTQEFPSPQTYWK", "binding result", "binds"),
    ("ICOSIg (Fc fusion, Mus musculus, UniProt Q9WVS0 21-144, looked up, Ig fusion protein purchased from R&D systems; also called mouse ICOSIg fusion protein) fusion protein: EINGSADHRMFSFHNGGVQISCKYPETVQQLKMRLFREREVLCELTKTKGSGNAVSIKNPMLCLYHLSNNSVSFFLNNPDSSQGSYYFCSLSIFDPPPFQERNLSGGYLHIYESQLCCQLKLWL", "binding result", "no binding"),
    ("mouse CD28Ig fusion protein (Fc fusion, UniProt P31041 20-149, looked up, Bought from R&D Systems; Ig (Fc) part not given) NKILVKQSPLLVVDSNEVSLSCRYSYNLLAKEFRASLYKGVNSDVEVCVGNGNFTYQPQFRSNAEFNCDGDFDNETVTFRLWNLHVNHTDIYFCKIEFMYPPPYLDNERSNGTIIHIKEKHLCHTQSSPK", "binding result", "no binding"),
]

// data source = patent US20120219559A1
